Quantity kind: melting point

The following compounds have reported results that may help.
Molecular string: COc1ccc(OC)c(CCn2cncc2-c2c[nH]c3cc(F)ccc23)c1
Test result: 130 to 131 °C
--
Molecular string: COc1ccc(-c2cncn2Cc2ccccc2)cc1
Test result: 83 to 84 °C

Could you share which melting point value was measured for `COc1ccc(CCn2cncc2-c2c[nH]c3cc(OC)ccc23)cc1` ?
45 to 46 °C

And what about the compound `COc1ccc(Cn2cncc2-c2c[nH]c3ccc(Br)cc23)cc1` ?
197 to 198 °C

Repeat for the following compound: `Clc1ccc2c(-c3cncn3CCc3ccccc3)c[nH]c2c1`
91 to 92 °C

Same lookup for `Fc1cccc2c(-c3cncn3Cc3c[nH]c4ccccc34)c[nH]c12` , please.
186 to 187 °C

Another compound to check: `COc1ccc(Cn2cncc2-c2c[nH]c3c(F)cccc23)cc1`
179 to 180 °C

Check `c1ccc(CCn2cncc2-c2c[nH]c3ccccc23)cc1` too.
69 to 70 °C

Follow-up entry: `COc1ccc(Cn2cncc2-c2c[nH]c3cc(Br)ccc23)cc1`
188 to 189 °C

Now try `COc1ccc(Cn2cncc2-c2c[nH]c3cc(F)ccc23)cc1` .
181 to 182 °C

Next up: `COc1ccc(CCn2cncc2-c2c[nH]c3c(F)cccc23)cc1`
175 to 176 °C

// query: `Fc1cccc2[nH]cc(-c3cncn3Cc3c[nH]c4ccccc34)c12`
164 to 165 °C

Now this one: `Clc1ccc2c(-c3cncn3CCc3ccc4c(c3)OCO4)c[nH]c2c1`
180 to 181 °C

Here is the next compound: `COc1ccc2[nH]cc(-c3cncn3CCc3ccccc3)c2c1`
51 to 52 °C

Moving on to the next compound: `COc1ccc(CCn2cncc2-c2c[nH]c3cccc(F)c23)cc1`
56 to 57 °C

Cool, now `COc1ccc(CCn2cncc2-c2c[nH]c3ccccc23)cc1`
158 to 159 °C
